Known relative viability of a selection of molecules
Test system: LU99A
Assay: relative viability (nuclei count vs DMSO), 5 days (fraction); higher = more cells survive
Conditions: first compound 0.01581 µM
Reply briefly: the number, and no unit.

Give the measured relative viability of CC1(C)CCC(c2ccc(Cl)cc2)=C(CN2CCN(c3ccc(C(=O)NS(=O)(=O)c4ccc(N[C@H](CCN5CCOCC5)CSc5ccccc5)c(S(=O)(=O)C(F)(F)F)c4)cc3)CC2)C1 [Navitoclax] + CC(=O)Nc1cccc(-n2c(=O)n(C3CC3)c(=O)c3c(Nc4ccc(I)cc4F)n(C)c(=O)c(C)c32)c1 [Trametinib] (partner 0.02 µM) .
0.597

Consider the molecule shown here: CC1(C)CCC(c2ccc(Cl)cc2)=C(CN2CCN(c3ccc(C(=O)NS(=O)(=O)c4ccc(N[C@H](CCN5CCOCC5)CSc5ccccc5)c(S(=O)(=O)C(F)(F)F)c4)cc3)CC2)C1 [Navitoclax] + Nc1nc2[nH]cc(CCc3ccc(C(=O)N[C@@H](CCC(=O)O)C(=O)O)cc3)c2c(=O)[nH]1 [Pemetrexed] (partner 0.2 µM) What is its recorded relative viability?
0.205

So what's the measured relative viability for this one? CC1(C)CCC(c2ccc(Cl)cc2)=C(CN2CCN(c3ccc(C(=O)NS(=O)(=O)c4ccc(N[C@H](CCN5CCOCC5)CSc5ccccc5)c(S(=O)(=O)C(F)(F)F)c4)cc3)CC2)C1 [Navitoclax] + CC(C)C[C@H](NC(=O)[C@H](Cc1ccccc1)NC(=O)c1cnccn1)B(O)O [Bortezomib] (partner 0.002 µM)
1.29

###

The entries below come with measured relative viability values attached.
Test system: COR-L23
Assay: relative viability (nuclei count vs DMSO), 5 days (fraction); higher = more cells survive
Conditions: first compound 2.53 µM
Number, no unit, nothing else.

Answered examples (3):
COMPOUND | relative viability
C=C1C(=O)O[C@@H](CCCCCCCC)[C@@H]1C(=O)O [C-75] + Cc1nc(Nc2ncc(C(=O)Nc3c(C)cccc3Cl)s2)cc(N2CCN(CCO)CC2)n1 [Dasatinib] (partner 0.075 µM) | 0.328
Oc1nc(-c2ccc(C(F)(F)F)cc2)nc2c1CSCC2 [XAV939] + C[C@@H](Oc1cc(-c2cnn(C3CCNCC3)c2)cnc1N)c1c(Cl)ccc(F)c1Cl [Crizotinib] (partner 1 µM) | 0.555
C=C1C(=O)O[C@@H](CCCCCCCC)[C@@H]1C(=O)O [C-75] + Cc1nc(NC(=O)N2CCC[C@H]2C(N)=O)sc1-c1ccnc(C(C)(C)C(F)(F)F)c1 [Alpelisib] (partner 2 µM) | 0.741

Query (compound): Oc1nc(-c2ccc(C(F)(F)F)cc2)nc2c1CSCC2 [XAV939] + CC1(C)CCC(c2ccc(Cl)cc2)=C(CN2CCN(c3ccc(C(=O)NS(=O)(=O)c4ccc(N[C@H](CCN5CCOCC5)CSc5ccccc5)c(S(=O)(=O)C(F)(F)F)c4)cc3)CC2)C1 [Navitoclax] (partner 0.5 µM) ; field requested: relative viability
0.892

###

System: ChaGo-K-1
Experiment: relative viability (nuclei count vs DMSO), 5 days (fraction); higher = more cells survive
Conditions: first compound 0.08 µM
Each record here notes measured relative viability.

COMPOUND | relative viability
C=C1C(=O)O[C@@H](CCCCCCCC)[C@@H]1C(=O)O [C-75] + C[C@@H](Oc1cc(-c2cnn(C3CCNCC3)c2)cnc1N)c1c(Cl)ccc(F)c1Cl [Crizotinib] (partner 1 µM) | 1.03
Oc1nc(-c2ccc(C(F)(F)F)cc2)nc2c1CSCC2 [XAV939] + CS(=O)(=O)N1CCN(Cc2cc3nc(-c4cccc5[nH]ncc45)nc(N4CCOCC4)c3s2)CC1 [Pictilisib] (partner 1 µM) | 0.629

Let's switch to this compound now.
Give the measured relative viability of C=C1C(=O)O[C@@H](CCCCCCCC)[C@@H]1C(=O)O [C-75] + Nc1nc2[nH]cc(CCc3ccc(C(=O)N[C@@H](CCC(=O)O)C(=O)O)cc3)c2c(=O)[nH]1 [Pemetrexed] (partner 0.2 µM) .
0.265
